System: HCV 1b-377-neo replicon cells
assay.overview: HCV replicon FRET assay
Assay type: cell-based
measurement.context: Hepatitis C virus; HCV replicon; read-out: Activity (EC50)
pEC50: −log10 of the molar value.
readout.name: pEC50

Problem: // returns reported pEC50 for input CO[C@@H]1C[C@@H](C(=O)Nc2ccc(/C=C/c3ccc(NC(=O)[C@@H]4C[C@H](OC)CN4C(=O)OCc4ccccc4)cc3)cc2)N(C(=O)OCc2ccccc2)C1 [Example 15]
Result: 7.05 to 10.00

Problem: // query: Cc1cc(CC(=O)N2CCC[C@H]2C(=O)Nc2ccc(/C=C/c3ccc(NC(=O)[C@@H]4CCCN4C(=O)CN(C)C)cc3)cc2)on1 [Example 97]
Result: 7.05 to 10.00

Problem: // query: CCOC(=O)N1CCC[C@H]1C(=O)Nc1ccc(/C=C/c2ccc(NC(=O)[C@@H]3CCCN3C(=O)C3(C(N)=O)CC3)cc2)cc1 [Example 56]
Result: 6.00 to 7.00

Problem: // query: O=C(Nc1ccc(/C=C/c2ccc(NC(=O)[C@@H]3CCCN3C(=O)c3ccccc3NCc3ccco3)cc2)cc1)[C@@H]1CCCN1C(=O)c1ccccc1NCc1ccco1 [Example 170]
Result: 6.00 to 7.00

Problem: // query: CCC/C=C/c1cccnc1C(=O)N1CCC[C@H]1C(=O)Nc1ccc(/C=C/c2ccc(NC(=O)[C@@H]3CCCN3C(=O)c3ncccc3/C=C/CCC)cc2)cc1 [Example 235]
Result: 5.00 to 6.00

Problem: // query: CC(=O)N1CCC[C@H]1C(=O)Nc1ccc(/C=C/c2ccc(NC(=O)[C@@H]3CCCN3C(=O)Cc3ccncc3)cc2)cc1 [Example 51]
Result: 6.00 to 7.00

Problem: // query: O=C(Nc1ccc(/C=C/c2ccc(NC(=O)[C@@H]3CCCN3C(=O)Cc3ccccc3)cc2)cc1)[C@@H]1CCCN1 [Example 252]
Result: 5.00 to 6.00

Problem: // query: CC(=O)N1CC=C[C@H]1C(=O)Nc1ccc(/C=C/c2ccc(NC(=O)[C@@H]3C=CCN3C(=O)Cc3cccnc3)cc2)cc1 [Example 219]
Result: 7.05 to 10.00

Problem: // query: Cc1cc(CC(=O)N2CCC[C@H]2C(=O)Nc2ccc(/C=C/c3ccc(NC(=O)[C@@H]4CCCN4C(=O)C(C)C)cc3)cc2)on1 [Example 98]
Result: 7.05 to 10.00

Problem: // query: CCC(=O)N1CC=C[C@H]1C(=O)Nc1ccc(/C=C/c2ccc(NC(=O)[C@@H]3C=CCN3C(=O)CC)cc2)cc1 [Example 71]
Result: 6.00 to 7.00

Problem: // query: O=C(Nc1ccc(/C=C/c2ccc(NC(=O)[C@@H]3CCCN3C(=O)c3cn[nH]c3)cc2)cc1)[C@@H]1CCCN1C(=O)c1cn[nH]c1 [Example 77]
Result: 7.05 to 10.00

Problem: // query: CC(=O)N1C[C@H](OC(C)(C)C)C[C@H]1C(=O)Nc1ccc(/C=C/c2ccc(NC(=O)[C@@H]3C[C@@H](OC(C)(C)C)CN3C(=O)[C@H]3CCCO3)cc2)cc1 [Example 129]
Result: 6.00 to 7.00

Problem: // query: O=C(Nc1ccc(/C=C/c2ccc(NC(=O)[C@@H]3CCCN3C(=O)Cc3ccccc3)cc2)cc1)C1CC1 [Example 292]
Result: 6.00 to 7.00

Problem: // query: O=C(Nc1ccc(/C=C/c2ccc(NC(=O)[C@@H]3CCCN3C(=O)C3CC3)cc2)cc1)[C@@H]1CCCN1C(=O)Cc1cccnc1 [Example 63]
Result: 7.05 to 10.00

Problem: // query: O=C1N[C@H]2[C@H](CS[C@H]2CCCCC(=O)N2CCC[C@H]2C(=O)Nc2ccc(/C=C/c3ccc(NC(=O)[C@@H]4CCCN4C(=O)Cc4ccccc4)cc3)cc2)N1 [Example 109]
Result: 7.05 to 10.00

Problem: // query: O=C(Nc1ccc(/C=C/c2ccc(NC(=O)[C@@H]3CCCN3C(=O)c3nccn3Cc3ccccc3)cc2)cc1)[C@@H]1CCCN1C(=O)c1nccn1Cc1ccccc1 [Example 179]
Result: 5.00 to 6.00

Problem: // query: O=C(Nc1ccc(/C=C/c2ccc(NC(=O)[C@@H]3CCCN3C(=O)N3CCOCC3)cc2)cc1)[C@@H]1CCCN1C(=O)N1CCOCC1 [Example 287]
Result: 7.05 to 10.00

Problem: // query: CSCC(=O)N1CCC[C@H]1C(=O)Nc1ccc(/C=C/c2ccc(NC(=O)[C@@H]3CCCN3C(=O)Cc3cc(C)no3)cc2)cc1 [Example 94]
Result: 7.05 to 10.00

Problem: // query: O=C(Nc1ccc(/C=C/c2ccc(NC(=O)[C@@H]3CCCN3C(=O)c3ccccc3N3CCCCC3)cc2)cc1)[C@@H]1CCCN1C(=O)c1ccccc1N1CCCCC1 [Example 172]
Result: 5.00 to 6.00

Problem: // query: O=C(Nc1ccc(/C=C/c2ccc(NC(=O)C3CC(=O)N(Cc4cccs4)C3)cc2)cc1)C1CC(=O)N(Cc2cccs2)C1 (centres unmarked) [Example 13]
Result: 5.00 to 6.00
